- assay_protocol: Plasma levels of Compound 1 over 72 h, suspension versus tablet, fasted or fed, in healthy volunteers
- Format: in vivo
- experimental_conditions: human, oral, 100 mg, 100 mg tablet, fasted, 8 h post-dose, read-out: Plasma level, Mean

chemical_structure	concentration at 8 h
NC(=O)N1CCC[C@@H](N(C(=O)NCc2ccc(OC(F)(F)F)cc2F)C2CC2)C1	1650 ng/mL

* * *

- assay_protocol: Plasma levels of Compound 1 over 24 hours after 14 days of suspension administration in healthy volunteers
- Assay type: in vivo
- experimental_conditions: human, oral, 75 mg BID suspension, 6 h post-dose
endpoint_name: concentration at 6 h (ng/mL)

chemical_structure	assay_result
NC(=O)N1CCC[C@@H](N(C(=O)NCc2ccc(OC(F)(F)F)cc2F)C2CC2)C1	2000

* * *

- assay_protocol: Plasma levels of Compound 1 over 24 hours after 14 days of suspension administration in healthy volunteers
- Format: in vivo
- experimental_conditions: human, oral, 25 mg BID suspension, 11.5 h post-dose
- Experimental: FIG. 2 is an assessment of the pharmacokinetics of Compound 1 in healthy volunteers over 24 hours after 14 days of administration of a suspension of the compound at three different doses (25 or 75 mg twice daily [BID] or 150 mg once daily [QD]). A suspension formulation of varying doses of Compound 1 (25 or 75 mg twice daily [BID] or 150 mg once daily [QD]) was administered to healthy volunteers. Plasma levels of Compound 1 over 24 hours after 14 days of administration were measured (FIG. 2). […]

chemical_structure	output_unit	concentration at 11.5 h
NC(=O)N1CCC[C@@H](N(C(=O)NCc2ccc(OC(F)(F)F)cc2F)C2CC2)C1	ng/mL	909

* * *

- assay_protocol: Plasma levels of Compound 1 over 24 hours after 14 days of suspension administration in healthy volunteers
- Format: in vivo
- experimental_conditions: human, oral, 25 mg BID suspension, 1 h post-dose
endpoint_name: concentration at 1 h (ng/mL)

compound	endpoint_name	assay_result
NC(=O)N1CCC[C@@H](N(C(=O)NCc2ccc(OC(F)(F)F)cc2F)C2CC2)C1 [Cpd 1]	concentration at 1 h	1090

* * *

- assay_protocol: Plasma levels of Compound 1 over 72 h, suspension versus tablet, fasted or fed, in healthy volunteers
- Format: in vivo
- experimental_conditions: human, oral, 100 mg, 100 mg suspension, fasted, 10 h post-dose, read-out: Plasma level, Mean

chemical_structure	concentration at 10 h, ng/mL
NC(=O)N1CCC[C@@H](N(C(=O)NCc2ccc(OC(F)(F)F)cc2F)C2CC2)C1	1110

* * *

- assay_protocol: Plasma levels of Compound 1 over 72 h, suspension versus tablet, fasted or fed, in healthy volunteers
- Format: in vivo
- experimental_conditions: human, oral, 100 mg, 100 mg tablet, fed, 24 h post-dose, read-out: Plasma level, Mean
endpoint_name: concentration at 24 h (ng/mL)

chemical_structure	endpoint_name	assay_result
NC(=O)N1CCC[C@@H](N(C(=O)NCc2ccc(OC(F)(F)F)cc2F)C2CC2)C1	concentration at 24 h	329

* * *

- assay_protocol: Plasma levels of Compound 1 over 72 h, suspension versus tablet, fasted or fed, in healthy volunteers
- Type: in vivo
- experimental_conditions: human, oral, 100 mg, 100 mg tablet, fasted, 10 h post-dose, read-out: Plasma level, Mean
endpoint_name: concentration at 10 h (ng/mL)

molecule	endpoint_name	assay_result
NC(=O)N1CCC[C@@H](N(C(=O)NCc2ccc(OC(F)(F)F)cc2F)C2CC2)C1 [Cpd 1]	concentration at 10 h	1250
